Test system: CEM cells
Assay: Nucleoside transporter (hENT-1) activity: CEM cell viability with or without the hENT-1 inhibitor dipyridamole
Assay type: cell-based
Conditions: Homo sapiens, CCRF-CEM; CEM cells, with 5 μM dipyridamole (hENT-1 inhibitor), 72 hours; read-out: CEM IC50 (μM) With DPD (5 μM)
RESULT TYPE: IC50

                                   compound  result_type  reported_value
0  Nc1ncn([C@H]2C[C@H](O)[C@@H](CO)S2)c(=O)n1 [Aza-T-dCyd, 5-aza-4′-Thio-2′-deoxycytidine, reference compound]         IC50          > 3 µM

* * *

# IC50 listing for each entry below
Tested on: CCRF-CEM cells
Assay: Cell viability assay (CellTiter Glo, 72 hours) in CEM cells
Format: cell-based
Details: Homo sapiens, CCRF-CEM, 72 h, read-out: Cell Line IC50 (μM) CEM

MOLECULE	READING UNIT	IC50
CC(C)OC(=O)[C@H](C)N[P@](=O)(OC[C@H]1S[C@@H](n2ccc(N)nc2=O)CC1O)Oc1ccccc1 (stereo partly shown)	µM	0.37
CCC(CC)COC(=O)[C@H](C)NP(=O)(OC[C@H]1S[C@@H](n2cnc(N)nc2=O)CC1O)Oc1cccc2ccccc12 (single isomer, unassigned) [Compound 11 Diastereomer 2]	µM	0.08
COC(=O)[C@H](C)N[P@](=O)(OC[C@H]1S[C@@H](n2cnc(N)nc2=O)C[C@@H]1O)Oc1ccccc1	µM	2.06
C[C@H](N[P@](=O)(OC[C@H]1S[C@@H](n2cnc(N)nc2=O)C[C@@H]1O)Oc1ccccc1)C(=O)OCc1ccccc1	µM	0.13
CC(C)OC(=O)[C@H](C)N[P@](=O)(OC[C@H]1S[C@@H](n2cnc(N)nc2=O)C[C@@H]1O)Oc1ccccc1	µM	0.24
CC(C)COC(=O)[C@H](C)N[P@](=O)(OC[C@H]1S[C@@H](n2cnc(N)nc2=O)C[C@@H]1O)Oc1ccccc1	µM	0.24
CCOC(=O)[C@H](C)N[P@](=O)(OC[C@H]1S[C@@H](n2cnc(N)nc2=O)C[C@@H]1O)Oc1ccccc1	µM	1.73

All values here come from patent US20210363170A1.
